# assayed_system: T1, human programmed death 1 (hPD-1), extracellular region (amino acids 34-150) (human, UniProt Q15116 34-150)
# T1 construct: extracellular region of human PD-1, amino acids 34-150, cloned into pET28a between NcoI and NdeI sites; purification was by cation exchange and gel filtration; also called CD279
# T1 sequence (Q15116 34-150): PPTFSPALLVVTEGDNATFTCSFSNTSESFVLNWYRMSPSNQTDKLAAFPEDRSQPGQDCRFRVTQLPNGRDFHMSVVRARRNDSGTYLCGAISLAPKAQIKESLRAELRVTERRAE
# test_details: SPR; Biacore T200; hPD-1 immobilised on a CM5 chip by amine coupling (5000 RU); peptides or hPD-L1 injected 90 s, dissociation 120 s; PBS-P buffer pH 7.4, 25°C, 30 μl/min; steady-state model
# recorded_conditions: both partners purified
measurement_name: pKd
When answering, recall that pKd equals minus log10 of the concentration in mol/L, and write that number alone.

Data request: Could you share which pKd value was measured for GNADYNSQRAQLYNQ (numbers count on the peptide itself; source: synthetic peptide (Fmoc solid-phase synthesis)) [Ar5Y_4 mutant W3A] ?
Data returned: 5.09

Data request: Could you share which pKd value was measured for GNWAYNSQRAQLYNQ (numbers count on the peptide itself; source: synthetic peptide (Fmoc solid-phase synthesis)) [Ar5Y_4 mutant D4A] ?
Data returned: 4.72

Data request: Could you share which pKd value was measured for GNWDYNSQAAQLYNQ (numbers count on the peptide itself; source: synthetic peptide (Fmoc solid-phase synthesis)) [Ar5Y_4 mutant R9A] ?
Data returned: 4.67

Data request: Could you share which pKd value was measured for GNWDYNSQRAQLANQ (numbers count on the peptide itself; source: synthetic peptide (Fmoc solid-phase synthesis)) [Ar5Y_4 mutant Y13A] ?
Data returned: 4.99

// next item, pKd requested
Data request: Could you share which pKd value was measured for GNWDANSQRAQLYNQ (numbers count on the peptide itself; source: synthetic peptide (Fmoc solid-phase synthesis)) [Ar5Y_4 mutant Y5A] ?
Data returned: 4.70
